species: Homo sapiens; test: Relative potency for human androgen and progesterone receptors
As shown below, each of these molecules has a reported Ratio value.
observable: Ratio

smilesdata=CC1=CC(C)(C)Nc2ccc3c(c21)/C(=C/c1ccccc1C)Oc1c(F)cccc1-3 observable=Ratio reading="> 1000"
smilesdata=COc1ccccc1/C=C1\Oc2ccc(F)cc2-c2ccc3c(c21)C(C)=CC(C)(C)N3 observable=Ratio reading="> 1000"
smilesdata=CC1=CC(C)(C)Nc2ccc3c(c21)/C(=C/c1ccncc1C)Oc1ccc(F)cc1-3 observable=Ratio reading="> 1000"
smilesdata=CSc1ccccc1/C=C1\Oc2ccc(F)cc2-c2ccc3c(c21)C(C)=CC(C)(C)N3 observable=Ratio reading="> 1000"
smilesdata=CCc1ccccc1/C=C1\Oc2ccc(F)cc2-c2ccc3c(c21)C(C)=CC(C)(C)N3 observable=Ratio reading="> 1000"

Cited source: ChEMBL document CHEMBL1145087
